Values compiled from the supplement of paper PMC11061612.

# Test system: COLO-792 (Melanoma)
# assay_method_text: combination Emax (second highest fraction inhibited in the dose matrix, 72 h); higher = more inhibition; extreme values may be limits of the assay
parameter_measured: combination Emax

[
  {
    "compound": "COc1cccc(OCCCN)c1-c1cc(Nc2cnc(C#N)cn2)n[nH]1 [Prexasertib] + CN(C)CCCOc1ccc(-c2ccc3ncc4c(c3c2)n(C2CCOCC2)c(=O)n4C)cn1 [AZD0156] (first compound max 1 µM, 7x7, partner max 1 µM)",
    "parameter_measured": "combination Emax",
    "result": 0.386
  }
]

====

# Tested on: JVM-2 (B-Cell Non-Hodgkin's Lymphoma)
# assay_method_text: Bliss excess, mean over the matrix (fraction); higher = more synergy

[
  {
    "compound": "CC(=O)Nc1cccc(-n2c(=O)n(C3CC3)c(=O)c3c(Nc4ccc(I)cc4F)n(C)c(=O)c(C)c32)c1 [Trametinib] + Cc1nc(-c2cn3c(n2)-c2ccc(-c4cnn(C(C)(C)C(N)=O)c4)cc2OCC3)n(C(C)C)n1 [Taselisib] (first compound max 1 µM, 7x7, partner max 10 µM)",
    "Bliss excess": 0.0171
  }
]

====

# Test system: NCI-H2087 (Lung Adenocarcinoma)
# assay_method_text: combination Emax (second highest fraction inhibited in the dose matrix, 72 h); higher = more inhibition; extreme values may be limits of the assay
Recorded measurements of combination Emax, one per entry
parameter_measured: combination Emax

[
  {
    "molecule": "NC1(C(=O)N[C@@H](CCO)c2ccc(Cl)cc2)CCN(c2ncnc3[nH]ccc23)CC1 [Capivasertib] + C[C@@H]1COCCN1C2=NC(=NC(=C2)C3(CC3)[S@](=N)(=O)C)C4=C5C=CNC5=NC=C4 [AZD6738] (first compound max 10 µM, 7x7, partner max 10 µM)",
    "parameter_measured": "combination Emax",
    "result": 0.486
  },
  {
    "molecule": "CN(CCO)CC[C@H](CSc1ccccc1)Nc1ccc(S(=O)(=O)NC(=O)c2ccc(N3CCC([C@@H](O)c4ccccc4-c4ccc(Cl)cc4)CC3)cc2)cc1S(=O)(=O)C(F)(F)F [AZD4320] + Nc1ccn([C@@H]2O[C@H](CO)[C@@H](O)C2(F)F)c(=O)n1 [Gemcitabine] (first compound max 1 µM, 7x7, partner max 0.3 µM)",
    "parameter_measured": "combination Emax",
    "result": 0.881
  }
]

====

# Test system: CAL-27 (Oral Cavity Carcinoma)
# assay_method_text: Bliss excess, mean over the matrix (fraction); higher = more synergy
Recorded measurements of Bliss excess, one per entry
parameter_measured: Bliss excess

[
  {
    "compound": "Cc1c2c(nn1C)CSCc1cc(n(C)n1)CSc1cc(c3ccccc3c1)OCCCc1c(C(=O)O)n(C)c3c-2c(Cl)ccc13 [AZD5991] + C[C@@H]1COCCN1C2=NC(=NC(=C2)C3(CC3)[S@](=N)(=O)C)C4=C5C=CNC5=NC=C4 [AZD6738] (first compound max 1 µM, 7x7, partner max 10 µM)",
    "parameter_measured": "Bliss excess",
    "result": 0.0358
  },
  {
    "compound": "CCN(CCO)CCCOc1ccc2c(Nc3cc(CC(=O)Nc4cccc(F)c4)[nH]n3)ncnc2c1 [AZD2811] + O=C(c1cc(Cc2n[nH]c(=O)c3ccccc23)ccc1F)N1CCN(C(=O)C2CC2)CC1 [Olaparib] (first compound max 1 µM, 7x7, partner max 10 µM)",
    "parameter_measured": "Bliss excess",
    "result": 0.0484
  },
  {
    "compound": "Cc1c2c(nn1C)CSCc1cc(n(C)n1)CSc1cc(c3ccccc3c1)OCCCc1c(C(=O)O)n(C)c3c-2c(Cl)ccc13 [AZD5991] + CC1(C)CCC(CN2CCN(c3ccc(C(=O)NS(=O)(=O)c4ccc(NCC5CCOCC5)c([N+](=O)[O-])c4)c(Oc4cnc5[nH]ccc5c4)c3)CC2)=C(c2ccc(Cl)cc2)C1 [Venetoclax] (first compound max 1 µM, 7x7, partner max 1 µM)",
    "parameter_measured": "Bliss excess",
    "result": -0.0081
  },
  {
    "compound": "CN(C)CCCOc1ccc(-c2ccc3ncc4c(c3c2)n(C2CCOCC2)c(=O)n4C)cn1 [AZD0156] + C=CCn1c(=O)c2cnc(Nc3ccc(N4CCN(C)CC4)cc3)nc2n1-c1cccc(C(C)(C)O)n1 [AZD1775] (first compound max 1 µM, partner max 1 µM)",
    "parameter_measured": "Bliss excess",
    "result": -0.0539
  },
  {
    "compound": "COc1nnc2ccc(N3CCC(c4ccc(OCCN5CCN(C)C(=O)[C@H]5C)cc4)CC3)nn12 [AZD5153] + Cn1cnc2c(F)c(Nc3ccc(Br)cc3Cl)c(C(=O)NOCCO)cc21 [Selumetinib] (first compound max 1 µM, 7x7, partner max 10 µM)",
    "parameter_measured": "Bliss excess",
    "result": -0.0093
  }
]
